Provenance of the data: patent US20140113877A1

# systemUnderTest: human PDE5 (Homo sapiens)
# Construct: from tissue; host or cells: human platelets from fresh donor blood (platelet lysate)
# testSummary: Inhibition of PDE5 activity (SPA, [3H]cGMP, platelet lysate)
# Format: biochemical
# protocolConditions: 0.5 μM cGMP, binned: below 8 / between 8 and 9, read-out: PDE5 inhibitory values measured as −logIC50 (converted)
# Protocol: As a source for human PDE5, platelets were used. […] PDE5 activities were measured in a 96-well platform using SPA (scintillation proximity assay) yttrium silicate beads (RPNQ1050 from GE Healthcare). […] Once the beads were sedimented (>30 min), the MTP's were analyzed in commercially available luminescence detection devices. The corresponding IC50 values of the compounds for inhibition of PDE activity were determined from the concentration-effect curves by means of non-linear regression. […]
observationType: IC50

- smilesText: "CCOc1cc2c(cc1OC)C(c1ccc(C(=O)N3CCC(n4c(=O)c5sc(-c6ccc(F)cc6OC)cc5n(Cc5ccc(C)c(F)c5)c4=O)CC3)cc1)=N[C@@H]1CCSC[C@H]21"
  systemUnderTest: "human PDE5 (Homo sapiens)"
  IC50: "1 to 10 nM"
- smilesText: "CCOc1cc2c(cc1OC)C(c1ccc(C(=O)N3CCC(n4c(=O)c5sc(-c6ccc(F)cc6OC)cc5n(Cc5ccccc5)c4=O)CC3)cc1)=N[C@@H]1CCSC[C@H]21"
  systemUnderTest: "human PDE5 (Homo sapiens)"
  IC50: "> 10 nM"

Now examine the next entry.
input: Item CCOc1cc2c(cc1OC)C(c1ccc(C(=O)N3CCC(n4c(=O)c5sc(-c6ccccc6)cc5n(Cc5ccc(OC)c(F)c5F)c4=O)CC3)cc1)=N[C@@H]1CCSC[C@H]21 : provide IC50
output: 1 to 10 nM
